// data source = ChEMBL document CHEMBL4513216

assay: Toxicity liver stage against HepG2, at 10uM; assay type: cell-based; parameters: test concentration 10 uM, cell line HepG2-A16-CD81EGFP; conditions: human, HepG2-A16-CD81EGFP cells; read-out: INHIBITION
Quick list: cytotoxicity at 10 µM per entry.
Reply with just the number (in %).

These solved cases illustrate the format of a correct answer.
>  <compound>
CC(C)N1CCCCC1CCn1cnc2cc(C(F)(F)F)ccc2c1=O (centres undefined)

>  <unitsLabel>
%

>  <cytotoxicity at 10 µM>
-5.98

$$$$
>  <compound>
NC(=O)CN1CC2(CCC1=O)CCN(Cc1ccc(Cl)c(F)c1)CC2

>  <unitsLabel>
%

>  <cytotoxicity at 10 µM>
-5

$$$$
>  <compound>
Cc1cc(C)cc(OCC(=O)N2CCCC2)c1

>  <unitsLabel>
%

>  <cytotoxicity at 10 µM>
5.04

$$$$
>  <compound>
COc1cccc(CNC(=O)N2CCN3CCNC(=O)C3C2)c1 (centres undefined)

>  <unitsLabel>
%

>  <cytotoxicity at 10 µM>
2.62

$$$$

What the record says about CCOc1nnc(CN2CCN(CCOC)CC2)s1 : cytotoxicity at 10 µM is -12.1

What the record says about c1ccc(C2CCCN(Cc3cc4n(n3)CCNC4)CC2)cc1 (centres undefined) : cytotoxicity at 10 µM is 1.9

----------
assay: Toxicity liver stage against HepG2, at 10uM; assay type: cell-based; set-up: test concentration 10 uM, cell line HepG2-A16-CD81EGFP; details: human, HepG2-A16-CD81EGFP cells; read-out: INHIBITION
reportedProperty: cytotoxicity at 10 µM (%)
Reply with just the number (in %).

These solved cases illustrate the format of a correct answer.
>  <compound>
CN1CCO[C@H]2CN(C(=O)c3ccncc3F)C[C@H]21

>  <cytotoxicity at 10 µM [%]>
-141

$$$$
>  <compound>
O=C(CCn1cccn1)NCCOc1ccc2c(c1)OCO2

>  <cytotoxicity at 10 µM [%]>
-5.01

$$$$
>  <compound>
N#Cc1ccccc1CN1CCC2(CC1)CC(c1ccccc1)C(=O)N2 (stereo not given)

>  <cytotoxicity at 10 µM [%]>
-44.8

$$$$
>  <compound>
Cc1cnn(CC2CN(CC(=O)N(C)Cc3cccs3)CCO2)c1 (stereo not given)

>  <cytotoxicity at 10 µM [%]>
6.28

$$$$
>  <compound>
CC(=O)N1C[C@@H](c2ccsc2)[C@@H]2CN(Cc3ccccc3Cl)CC[C@@H]21

>  <cytotoxicity at 10 µM [%]>
3.16

$$$$
>  <compound>
CNC(=O)CS(=O)(=O)Cc1coc(-c2cccc(F)c2)n1

>  <cytotoxicity at 10 µM [%]>
1.28

$$$$
>  <compound>
CCOc1ccc(Cl)cc1CCNC(=O)Cn1nc(C)ccc1=O

>  <cytotoxicity at 10 µM [%]>
-3.91

$$$$
>  <compound>
Cc1cc(CN2C[C@@H]3CC[C@H]2CN(Cc2[nH]cnc2C)C3)on1

>  <cytotoxicity at 10 µM [%]>
-2.34

$$$$

What the record says about COCCN1CCCC(c2nc(C)n3c(C)c(C)sc23)C1 (stereo not given) : cytotoxicity at 10 µM is -21.5

What the record says about O=C1CC2(CCN(CC3CCOC3)CC2)c2ccccc2N1CC1CC1 (stereo not given) : cytotoxicity at 10 µM is -9.61

----------
Quick list: cytotoxicity at 10 µM per entry.
test: Toxicity liver stage against HepG2, at 10uM; format: cell-based; set-up: test concentration 10 uM, cell line HepG2-A16-CD81EGFP; settings: human, HepG2-A16-CD81EGFP cells; read-out: INHIBITION
Reply with just the number (in %).

>  <compound>
NC(=O)c1cn[nH]c1C1CCCN1C(=O)c1cnccn1 (centres undefined)

>  <cytotoxicity at 10 µM, %>
-6.17

$$$$
>  <compound>
Fc1ccc(Nc2ccc(C3CCN(Cc4ncc[nH]4)CC3)nc2)nc1

>  <cytotoxicity at 10 µM, %>
-1.85

$$$$
>  <compound>
COc1ccnc(N2CCN(C(=O)c3csnn3)CC2)n1

>  <cytotoxicity at 10 µM, %>
-0.581

$$$$
>  <compound>
CC1Cc2ccccc2N1Cc1occc1C(=O)O (centres undefined)

>  <cytotoxicity at 10 µM, %>
0.995

$$$$
>  <compound>
Cc1ccnc(C(Nc2nccc(-c3ccc(C)nc3C)n2)C2CC2)c1 (centres undefined)

>  <cytotoxicity at 10 µM, %>
-1.89

$$$$

What the record says about COCc1nc(C(=O)OCC2CCN(c3ccccc3)C2)cs1 (centres undefined) : cytotoxicity at 10 µM is -1.31

What the record says about Cc1ccoc1C(=O)N1CC[C@@H]2CN(C3CCOCC3)CCO[C@@H]2C1 : cytotoxicity at 10 µM is -120

What the record says about Cn1ccc(CNC(=O)N2CCC(C3(C)OCCO3)CC2)c1 : cytotoxicity at 10 µM is 3.15

What the record says about CC(C)c1nnsc1CNC(=O)C1CCN(C(=O)C2CC2)CC1 : cytotoxicity at 10 µM is -0.439

What the record says about CN(Cc1cnn(C)c1)C(=O)c1cc(C(F)(F)F)n(C)n1 : cytotoxicity at 10 µM is 8.52

----------
test: Toxicity liver stage against HepG2, at 10uM; type: cell-based; design: test concentration 10 uM, cell line HepG2-A16-CD81EGFP; conditions: human, HepG2-A16-CD81EGFP cells; read-out: INHIBITION
Quick list: cytotoxicity at 10 µM per entry.
Reply with just the number (in %).

>  <molecule>
CCC(C)(NCc1ncc(C(C)C)o1)c1nccs1 (stereo unspecified)

>  <unitsLabel>
%

>  <measValue>
18.9

$$$$

What the record says about CN(Cc1c(F)cccc1Cl)C(=O)Cn1cnc(C#N)n1 : cytotoxicity at 10 µM is -5.5

What the record says about COc1c(CNCc2cccc(CN3CCOCC3)c2)c(C)nn1C : cytotoxicity at 10 µM is 11.1

What the record says about COCCOc1ccc(-c2noc([C@@H]3CCCN3)n2)cn1 : cytotoxicity at 10 µM is -4.34

----------
test: Toxicity liver stage against HepG2, at 10uM; format: cell-based; set-up: test concentration 10 uM, cell line HepG2-A16-CD81EGFP; conditions: human, HepG2-A16-CD81EGFP cells; read-out: INHIBITION
reportedProperty: cytotoxicity at 10 µM (%)
Reply with just the number (in %).

>  <compound>
Cc1ccc(N2CCCC3(COCCN(c4cnccn4)C3)C2)nn1 (stereo not given)

>  <measValue>
-139

$$$$
>  <compound>
COc1ccc(-c2ccc(C(=O)O)c(F)c2)c(F)c1

>  <measValue>
-0.378

$$$$
>  <compound>
CCc1nc(CNc2ccc(C(=O)N3CCSCC3)cc2C)no1

>  <measValue>
-6.99

$$$$
>  <compound>
CCN(CC(F)(F)F)C(=O)C1CCCN(Cc2nc(C)c(C)o2)C1 (stereo not given)

>  <measValue>
-4.05

$$$$
>  <compound>
Cc1oc(C(=O)O)cc1S(=O)(=O)Nc1cc(Br)ccc1F

>  <measValue>
-3.46

$$$$

What the record says about Cc1ccnc(NC(=O)c2ccc(Br)o2)c1 : cytotoxicity at 10 µM is -10.5

What the record says about CCn1cnnc1C1CCN(C(=O)c2cnn(C(C)(C)C)c2)CC1 : cytotoxicity at 10 µM is 4.78

What the record says about Cc1ccc(CN2CCN(Cc3nccn3C)[C@H]3CS(=O)(=O)C[C@H]32)o1 : cytotoxicity at 10 µM is -3.65

What the record says about O=C(c1ccncc1)N1CC[C@H]2[C@H]1CCN2S(=O)(=O)C1CC1 : cytotoxicity at 10 µM is -126

What the record says about CCN(c1cccc(F)c1)S(=O)(=O)c1cc(C(=O)O)cc2c1CCC2 : cytotoxicity at 10 µM is 10.5

What the record says about Cc1noc(C)c1CC(=O)OCc1nc(N)c2ccccc2n1 : cytotoxicity at 10 µM is 6.83

What the record says about O=C(c1cnccn1)N1CCn2cnc(COCC3CC3)c2C1 : cytotoxicity at 10 µM is 7.14

What the record says about CN(Cc1ccccc1)C(=O)CCNc1ncccc1C#N : cytotoxicity at 10 µM is 4.55

What the record says about CCCn1nccc1C(=O)Nc1ncc(C)s1 : cytotoxicity at 10 µM is 8.05

What the record says about COC(=O)CNC(=O)N1CCC2(CC1)CC(c1ccccc1)CN(C)C2 (stereo not given) : cytotoxicity at 10 µM is 0.761

----------
assay: Toxicity liver stage against HepG2, at 10uM; assay type: cell-based; parameters: test concentration 10 uM, cell line HepG2-A16-CD81EGFP; conditions: human, HepG2-A16-CD81EGFP cells; read-out: INHIBITION
reportedProperty: cytotoxicity at 10 µM (%)
Reply with just the number (in %).

>  <compound>
CCNC(=O)O[C@H]1COCCN(c2nc3ccccc3s2)C1

>  <cytotoxicity at 10 µM [%]>
-3.04

$$$$
>  <compound>
CC(C)N1CCCC(C(=O)NCCc2csc(-c3ccncc3)n2)C1 (stereo not given)

>  <cytotoxicity at 10 µM [%]>
-17.4

$$$$
>  <compound>
CN1CCOC2(CCCN(C(=O)C3CCCCC3)C2)C1 (stereo not given)

>  <cytotoxicity at 10 µM [%]>
-6.66

$$$$

What the record says about Cc1c(C(=O)N2CCCC2c2cnn(C)c2)cnn1-c1ccccc1 (stereo not given) : cytotoxicity at 10 µM is -23.7

What the record says about CC(C)CN1CCc2[nH]cnc2C12CCN(C(=O)c1cc[nH]n1)CC2 : cytotoxicity at 10 µM is 0.363
